biological target: Beta-2 adrenergic receptor (Homo sapiens); also: assay procedure not described here
Sequence (P07550 whole entry): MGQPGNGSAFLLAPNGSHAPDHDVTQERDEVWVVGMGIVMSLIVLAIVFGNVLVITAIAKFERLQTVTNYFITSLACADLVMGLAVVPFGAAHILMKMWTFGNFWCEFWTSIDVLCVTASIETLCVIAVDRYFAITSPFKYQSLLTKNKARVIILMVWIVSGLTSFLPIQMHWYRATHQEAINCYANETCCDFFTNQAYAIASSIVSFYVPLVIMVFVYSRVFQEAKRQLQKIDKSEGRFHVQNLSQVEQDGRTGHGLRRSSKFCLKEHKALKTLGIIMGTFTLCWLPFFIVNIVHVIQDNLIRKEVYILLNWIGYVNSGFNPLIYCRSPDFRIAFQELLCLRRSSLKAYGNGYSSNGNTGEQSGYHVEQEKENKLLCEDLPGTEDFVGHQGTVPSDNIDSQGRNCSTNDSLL
The molecules listed here are annotated with their AC50.

CC(=O)Nc1ccc(CC(=O)O)cc1
> 30 µM

Input: Specify AC50 for CC(C)[C@@H](C)/C=C/[C@@H](C)[C@H]1CC[C@H]2/C(=C/C=C3\C[C@@H](O)CC[C@@H]3C)CCC[C@]12C [DIHYDROTACHYSTEROL] and stop.
Output: > 10 µM

Input: Return the recorded AC50 value; entry: Cc1nc(Nc2ncc(C(=O)Nc3c(C)cccc3Cl)s2)cc(N2CCN(CCO)CC2)n1
Output: > 10 µM

Input: Tell us which AC50 value is on record for C=C1c2cccc(O)c2C(=O)C2=C(O)[C@]3(O)C(=O)C(C(N)=O)=C(O)[C@@H](N(C)C)[C@@H]3[C@@H](O)[C@H]12
Output: > 10 µM

Input: Give recorded AC50. Cc1cc(C)nc(NS(=O)(=O)c2ccc(N)cc2)n1
Output: > 10 µM

----------
biological target: Alpha-1A adrenergic receptor (Homo sapiens); assay type: functional, cell-based; also: assay procedure not described here
Sequence (P35348 whole entry): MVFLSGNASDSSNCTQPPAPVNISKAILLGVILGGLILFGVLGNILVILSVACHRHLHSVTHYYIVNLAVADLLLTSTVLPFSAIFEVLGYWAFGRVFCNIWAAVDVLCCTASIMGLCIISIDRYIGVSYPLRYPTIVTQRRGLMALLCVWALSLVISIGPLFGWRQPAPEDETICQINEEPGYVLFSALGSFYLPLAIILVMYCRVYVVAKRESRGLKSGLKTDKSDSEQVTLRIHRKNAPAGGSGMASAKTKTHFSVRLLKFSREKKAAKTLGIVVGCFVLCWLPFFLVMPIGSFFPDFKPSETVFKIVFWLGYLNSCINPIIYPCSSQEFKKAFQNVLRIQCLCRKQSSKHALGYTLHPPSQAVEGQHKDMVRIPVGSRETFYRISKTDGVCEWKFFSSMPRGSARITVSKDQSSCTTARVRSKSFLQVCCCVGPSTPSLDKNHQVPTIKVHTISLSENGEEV
metric-name: AC50

See these solved cases before continuing.
O=C1Cc2cc(CCN3CCN(c4nsc5ccccc45)CC3)c(Cl)cc2N1
> 30 µM
CC(C)(O/N=C(\C(=O)N[C@@H]1C(=O)N2C(C(=O)[O-])=C(C[n+]3ccccc3)CS[C@H]12)c1csc(N)n1)C(=O)O
> 300 µM
C[C@]12CCC(=O)C[C@@H]1CC[C@@H]1[C@@H]2CC[C@]2(C)[C@@H](O)CC[C@@H]12
> 30 µM
C[N+]12CCC(CC1)C(OC(=O)C(O)(c1ccccc1)c1ccccc1)C2 (centres undefined)
> 30 µM
O=C1OC(OC(=O)c2cccnc2Nc2cccc(C(F)(F)F)c2)c2ccccc21 (centres undefined) [TALNIFLUMATE]
> 30 µM
Cc1cc(=O)n(-c2ccccc2)n1C [ANTIPYRINE]
> 30 µM

Input: Tell me its AC50 given C[N+](C)(C)CCOP(=O)([O-])OC[C@H](O)CO as the entry.
Output: > 30 µM

Input: State its AC50 for this molecule: CNCCc1ccc(OC(=O)C(C)C)c(OC(=O)C(C)C)c1
Output: 0.131 µM

Input: For the molecule O=S1(=O)CCN(CN2CCS(=O)(=O)NC2)CN1 , give its reported AC50.
Output: > 30 µM

----------
target: Neuronal acetylcholine receptor subunit alpha-4 (Homo sapiens); also: assay procedure not described here
Sequence (P43681 whole entry): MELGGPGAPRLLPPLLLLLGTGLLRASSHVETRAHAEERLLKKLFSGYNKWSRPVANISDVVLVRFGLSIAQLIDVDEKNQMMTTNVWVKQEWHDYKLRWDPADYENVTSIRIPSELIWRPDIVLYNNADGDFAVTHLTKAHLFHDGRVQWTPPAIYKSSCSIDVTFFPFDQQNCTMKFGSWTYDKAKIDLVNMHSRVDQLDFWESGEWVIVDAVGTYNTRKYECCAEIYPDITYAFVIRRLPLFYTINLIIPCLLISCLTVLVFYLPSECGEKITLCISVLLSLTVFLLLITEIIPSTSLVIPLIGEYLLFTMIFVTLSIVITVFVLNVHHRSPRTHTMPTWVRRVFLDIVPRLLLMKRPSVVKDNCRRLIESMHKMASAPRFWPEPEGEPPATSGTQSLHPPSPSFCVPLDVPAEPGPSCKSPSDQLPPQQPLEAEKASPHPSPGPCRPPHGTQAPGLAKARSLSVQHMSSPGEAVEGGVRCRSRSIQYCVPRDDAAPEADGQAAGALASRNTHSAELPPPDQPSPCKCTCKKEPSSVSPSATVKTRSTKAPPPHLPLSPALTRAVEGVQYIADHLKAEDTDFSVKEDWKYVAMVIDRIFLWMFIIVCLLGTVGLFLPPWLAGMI
metric-name: AC50

NS(=O)(=O)c1cc2c(cc1Cl)N=C(CSCc1ccccc1)NS2(=O)=O [BENZTHIAZIDE]
> 10 µM
Cc1ccccc1-n1c(CF)nc2ccc(N)cc2c1=O [AFLOQUALONE]
> 30 µM
CC(C)(C)NCC(O)c1ccccc1Cl (centres undefined) [TULOBUTEROL]
> 30 µM
CCOC(=O)c1ccc(C#Cc2ccc3c(c2)C(C)(C)CCS3)nc1 [TAZAROTENE]
> 10 µM
CC(C)(Oc1ccc(CCNC(=O)c2ccc(Cl)cc2)cc1)C(=O)O [BEZAFIBRATE]
> 10 µM
COc1ccc([C@@H]2CC(=O)c3c(O)cc(O)cc3O2)cc1O [HESPERETIN]
> 10 µM
C[C@]12CCC(=O)C[C@@H]1CC[C@@H]1[C@@H]2CC[C@]2(C)[C@@H](O)CC[C@@H]12 [STANOLONE]
> 30 µM
COc1ccc2cc(CCC(C)=O)ccc2c1 [NABUMETONE]
> 10 µM

Okay, now this compound:
Input: Quote Neuronal acetylcholine receptor subunit alpha-4 (Homo sapiens) AC50 for entry CNCCc1ccc(OC(=O)C(C)C)c(OC(=O)C(C)C)c1 [IBOPAMINE] .
Output: > 30 µM

----------
biological target: Beta-2 adrenergic receptor (Homo sapiens); also: assay procedure not described here
metric-name: AC50

Take a look at these entries with their results.
CN1CCN=C(c2ccccc2)c2cc(Cl)ccc21 [MEDAZEPAM]
> 30 µM
COc1cc(C)c(/C=C/C(C)=C/C=C/C(C)=C/C(=O)O)c(C)c1C [ACITRETIN]
> 10 µM
CCCN1CCCC[C@H]1C(=O)Nc1c(C)cccc1C [ROPIVACAINE]
> 30 µM
C[N+]1(C)CCC(=C(c2ccccc2)c2ccccc2)CC1
> 10 µM
CCN1CC(CCN2CCOCC2)C(c2ccccc2)(c2ccccc2)C1=O (stereo not drawn) [DOXAPRAM]
> 30 µM

Input: State AC50 on Beta-2 adrenergic receptor (Homo sapiens). Entry: COc1ccccc1OC1(C)OC(=O)c2ccccc2O1 (stereo not drawn) [GUAIMESAL]
Output: > 30 µM

Input: Send back Beta-2 adrenergic receptor (Homo sapiens) AC50 of CC[C@@H](CO)NC(=O)[C@@H]1C=C2c3cccc4c3c(cn4C)C[C@H]2N(C)C1 [METHYSERGIDE] only.
Output: > 10 µM

Input: Provide Beta-2 adrenergic receptor (Homo sapiens) AC50 reading for COc1ccc2cc(CCC(C)=O)ccc2c1 [NABUMETONE] .
Output: > 10 µM

Input: Provide AC50, tested on Beta-2 adrenergic receptor (Homo sapiens), for CCOC(=O)c1ncn2c1CN(C)C(=O)c1cc(F)ccc1-2 [FLUMAZENIL] . Also: assay procedure not described here.
Output: > 30 µM

Input: Tell me its AC50 on Beta-2 adrenergic receptor (Homo sapiens): O=C1Cc2cc(CCN3CCN(c4nsc5ccccc45)CC3)c(Cl)cc2N1 [ZIPRASIDONE]
Output: > 30 µM

Input: Give AC50; test system Beta-2 adrenergic receptor (Homo sapiens); compound Cc1ccccc1-n1c(CF)nc2ccc(N)cc2c1=O [AFLOQUALONE]; also: assay procedure not described here
Output: > 30 µM

Input: State measured AC50 of the compound CC[C@H](C)C(=O)O[C@H]1C[C@@H](C)C=C2C=C[C@H](C)[C@H](CC[C@@H]3C[C@@H](O)CC(=O)O3)[C@H]21 [LOVASTATIN] with Beta-2 adrenergic receptor (Homo sapiens).
Output: > 10 µM

Input: Give AC50 for this entry on Beta-2 adrenergic receptor (Homo sapiens): O=C(c1cc(Cc2n[nH]c(=O)c3ccccc23)ccc1F)N1CCN(C(=O)C2CC2)CC1 [OLAPARIB]
Output: > 30 µM

Input: Provide AC50, system Beta-2 adrenergic receptor (Homo sapiens), entry CN(CCOc1ccc(CC2SC(=O)NC2=O)cc1)c1ccccn1 (stereo not drawn) [ROSIGLITAZONE]; also: assay procedure not described here
Output: > 30 µM

Input: Name the recorded AC50 of CC(=O)O[C@]1(C(C)=O)CC[C@H]2[C@@H]3C=C(Cl)C4=CC(=O)[C@@H]5C[C@@H]5[C@]4(C)[C@H]3CC[C@@]21C [CYPROTERONE ACETATE] , assay system Beta-2 adrenergic receptor (Homo sapiens). Also: assay procedure not described here.
Output: > 10 µM

Input: Give reported AC50 for Cn1c(=O)c2c(ncn2CCOC(=O)C(C)(C)Oc2ccc(Cl)cc2)n(C)c1=O [THEOFIBRATE] (Beta-2 adrenergic receptor (Homo sapiens))
Output: > 30 µM

Input: Look up Beta-2 adrenergic receptor (Homo sapiens) data: AC50 of Cc1ccccc1N1C(=O)c2cc(S(N)(=O)=O)c(Cl)cc2NC1C (stereo not drawn) [METOLAZONE] , then report it.
Output: > 10 µM

Input: # lookup: Beta-2 adrenergic receptor (Homo sapiens) AC50, key = CCCc1cc(=O)[nH]c(=S)[nH]1 [PROPYLTHIOURACIL]
Output: > 10 µM

----------
Record type: AC50 measurement. Applies to: Growth hormone secretagogue receptor type 1 (Homo sapiens, UniProt Q92847)

O=C1Cc2cc(CCN3CCN(c4nsc5ccccc45)CC3)c(Cl)cc2N1
> 30 µM
CC(C(=O)O)c1ccc2oc(-c3ccc(Cl)cc3)nc2c1 (stereo unspecified)
> 30 µM
CN[C@]1(c2ccccc2Cl)CCCCC1=O
> 30 µM
C[C@@H]1C[C@H]2[C@@H]3CCC4=CC(=O)C=C[C@]4(C)[C@@]3(F)[C@@H](O)C[C@]2(C)[C@@]1(O)C(=O)CO
> 30 µM
C[C@]12C/C(=C/O)C(=O)C[C@@H]1CC[C@@H]1[C@@H]2CC[C@@]2(C)[C@H]1CC[C@]2(C)O
> 30 µM
CCOC(=O)c1ncn2c1CN(C)C(=O)c1cc(F)ccc1-2
> 30 µM

Input: Report value: AC50, system: Growth hormone secretagogue receptor type 1 (Homo sapiens, UniProt Q92847), molecule: Cc1ccccc1-n1c(CF)nc2ccc(N)cc2c1=O; also: assay procedure not described here
Sequence (Q92847 whole entry): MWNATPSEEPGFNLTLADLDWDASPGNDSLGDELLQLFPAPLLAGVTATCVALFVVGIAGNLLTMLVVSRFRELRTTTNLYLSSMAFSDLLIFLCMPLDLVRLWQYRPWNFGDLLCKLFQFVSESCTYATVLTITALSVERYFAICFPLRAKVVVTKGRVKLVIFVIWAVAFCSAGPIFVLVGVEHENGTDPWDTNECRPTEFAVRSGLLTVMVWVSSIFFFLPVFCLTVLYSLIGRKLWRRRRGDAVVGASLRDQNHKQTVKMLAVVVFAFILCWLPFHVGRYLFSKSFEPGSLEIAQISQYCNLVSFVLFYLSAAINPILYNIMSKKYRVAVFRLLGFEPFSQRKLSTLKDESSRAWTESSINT
Output: > 30 µM

Input: Give Growth hormone secretagogue receptor type 1 (Homo sapiens, UniProt Q92847) AC50 for the following molecule: CNC[C@H](O)c1ccc(O)c(O)c1 [EPINEPHRINE]
Output: > 30 µM

Input: Lab note: Growth hormone secretagogue receptor type 1 (Homo sapiens, UniProt Q92847) assay, enter AC50 for Cn1c(=O)c2c(ncn2CCOC(=O)C(C)(C)Oc2ccc(Cl)cc2)n(C)c1=O [THEOFIBRATE] here
Output: > 30 µM

----------
Below, each of the compounds is paired with its reported AC50 value.
molecular target: 5-hydroxytryptamine receptor 2A (Homo sapiens); type: functional, cell-based; also: assay procedure not described here
Sequence (P28223 whole entry): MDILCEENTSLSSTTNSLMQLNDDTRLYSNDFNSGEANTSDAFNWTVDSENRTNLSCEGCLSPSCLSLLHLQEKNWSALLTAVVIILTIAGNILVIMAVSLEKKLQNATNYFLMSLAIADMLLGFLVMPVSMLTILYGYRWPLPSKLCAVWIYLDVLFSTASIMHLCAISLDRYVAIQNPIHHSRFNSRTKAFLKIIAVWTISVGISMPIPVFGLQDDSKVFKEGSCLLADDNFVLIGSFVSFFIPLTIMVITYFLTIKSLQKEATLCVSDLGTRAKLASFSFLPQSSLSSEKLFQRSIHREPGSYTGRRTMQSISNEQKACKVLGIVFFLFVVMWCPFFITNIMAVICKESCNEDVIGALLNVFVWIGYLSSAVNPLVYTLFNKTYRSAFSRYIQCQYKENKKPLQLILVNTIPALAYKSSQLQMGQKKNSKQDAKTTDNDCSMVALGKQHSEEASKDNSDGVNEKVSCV

// solved cases for AC50 follow
CC(C)NC(=N)NC(=N)Nc1ccc(Cl)c(Cl)c1 [CHLORPROGUANIL]
3.6 µM
COc1ccc([C@@H]2CC(=O)c3c(O)cc(O)cc3O2)cc1O [HESPERETIN]
> 10 µM
C=CC[N+]1([C@H]2C[C@H]3[C@@H]4CC[C@H]5C[C@H](O)[C@@H](N6CCOCC6)C[C@]5(C)[C@H]4CC[C@]3(C)[C@H]2OC(C)=O)CCCC1 [ROCURONIUM]
> 30 µM

Attention now turns to another entry.
Input: Retrieve AC50 measured for COc1cc(C)c(/C=C/C(C)=C/C=C/C(C)=C/C(=O)O)c(C)c1C [ACITRETIN] and print it.
Output: > 10 µM

Attribution: ChEMBL document CHEMBL5291721
